# Method description: activity coefficient (dimensionless); of the first substance listed, at infinite dilution; xn = mol fraction of the nth substance listed
# Condition info: 353.15 K; 101 kPa; Liquid; Chromatography; x1 = 0
In this section, each of the compounds is paired with its reported activity coefficient.

// solved cases for activity coefficient follow
{"columns": ["Compound", "activity coefficient"],
 "data": [
  ["CCC[N+](=O)[O-] [1-nitropropane] + CCCCCCCCCCCCCC[N+](CCCCCC)(CCCCCC)CCCCCC.C[C@H](O)C(=O)[O-]", 0.34],
  ["c1ccccc1 [benzene] + CCCCCCCCCCCCCC[N+](CCCCCC)(CCCCCC)CCCCCC.C[C@H](O)C(=O)[O-]", 0.38],
  ["CCOCC [diethyl ether] + CCCCCCCCCCCCCC[N+](CCCCCC)(CCCCCC)CCCCCC.C[C@H](O)C(=O)[O-]", 0.79]
]}

## Task Can you look up the measured activity coefficient of CCc1ccccc1 [ethylbenzene] + CCCCCCCCCCCCCC[N+](CCCCCC)(CCCCCC)CCCCCC.C[C@H](O)C(=O)[O-] for me?
## Result 0.56

## Task Repeat for the following compound: C1CCCCC1 [cyclohexane] + CCCCCCCCCCCCCC[N+](CCCCCC)(CCCCCC)CCCCCC.C[C@H](O)C(=O)[O-]
## Result 0.73

## Task Repeat for the following compound: CCCCCCCCCCC [undecane] + CCCCCCCCCCCCCC[N+](CCCCCC)(CCCCCC)CCCCCC.C[C@H](O)C(=O)[O-]
## Result 1.81

## Task Repeat for the following compound: C[N+](=O)[O-] [nitromethane] + CCCCCCCCCCCCCC[N+](CCCCCC)(CCCCCC)CCCCCC.C[C@H](O)C(=O)[O-]
## Result 0.31

## Task Repeat for the following compound: ClC(Cl)(Cl)Cl [tetrachloromethane] + CCCCCCCCCCCCCC[N+](CCCCCC)(CCCCCC)CCCCCC.C[C@H](O)C(=O)[O-]
## Result 0.26

## Task Repeat for the following compound: ClC(Cl)Cl [trichloromethane] + CCCCCCCCCCCCCC[N+](CCCCCC)(CCCCCC)CCCCCC.C[C@H](O)C(=O)[O-]
## Result 0.04

## Task Repeat for the following compound: CCC(=O)CC [pentan-3-one] + CCCCCCCCCCCCCC[N+](CCCCCC)(CCCCCC)CCCCCC.C[C@H](O)C(=O)[O-]
## Result 0.55

## Task Repeat for the following compound: C=CCCCC [hex-1-ene] + CCCCCCCCCCCCCC[N+](CCCCCC)(CCCCCC)CCCCCC.C[C@H](O)C(=O)[O-]
## Result 0.95

## Task Repeat for the following compound: CC#N [acetonitrile] + CCCCCCCCCCCCCC[N+](CCCCCC)(CCCCCC)CCCCCC.C[C@H](O)C(=O)[O-]
## Result 0.44
